tested on: Crude diglycosidase; assay: Examination of pH in the conversion into isoflavone aglycons by diglycosidase using soybean materials; assay type: biochemical, Penicillium multicolor IAM7153; conditions: pH5.4; heat treatment of enzyme: no; reaction time 6 h
Listing of recorded Decomposition efficiency of glycitin family in defatted soybean by entry.
Write the value in % as a bare number.

1. COc1cc2c(=O)c(-c3ccc(O)cc3)coc2cc1O[C@@H]1O[C@H](COC(=O)CC(=O)O)[C@@H](O)[C@H](O)[C@H]1O [malonylglycitin, 6″-O-malonylglycitin] = 32.3

Switching to the query record.
Q: Give its Decomposition efficiency of glycitin family in defatted soybean value. Item: COc1cc2c(=O)c(-c3ccc(O)cc3)coc2cc1O [glycitein]
Result: 67.7

---

Listing of recorded Decomposition efficiency of daidzin family in soymilk by entry.
test system: Crude diglycosidase; experiment: Examination of pH in the conversion into isoflavone aglycons by diglycosidase using soybean materials; assay type: biochemical, Penicillium multicolor IAM7153; settings: pH6.2; heat treatment of enzyme: no; reaction time 0 h
Write the value in % as a bare number.

Consider the reported Decomposition efficiency of daidzin family in soymilk for these molecules:
1. O=C(O)CC(=O)OC[C@H]1O[C@@H](Oc2ccc3c(=O)c(-c4ccc(O)cc4)coc3c2)[C@H](O)[C@@H](O)[C@@H]1O [malonyldaidzin, 6″-O-malonyldaidzin] = 56.2
2. O=c1c(-c2ccc(O)cc2)coc2cc(O[C@@H]3O[C@H](CO)[C@@H](O)[C@H](O)[C@H]3O)ccc12 [daidzin] = 34.9

Q: Give its Decomposition efficiency of daidzin family in soymilk value. Item: O=c1c(-c2ccc(O)cc2)coc2cc(O)ccc12 [daidzein]
Result: 9.0

---

test system: Crude diglycosidase; test: Examination of pH in the conversion into isoflavone aglycons by diglycosidase using soybean materials; type: biochemical, Penicillium multicolor IAM7153; set-up: concentration or dose not given beside the values; conditions: pH3.4; heat treatment of enzyme: yes; reaction time 6 h
Measured Attribute: Decomposition efficiency of genistin family in defatted soybean (%)
Write the value in % as a bare number.

1) O=C(O)CC(=O)OC[C@H]1O[C@@H](Oc2cc(O)c3c(=O)c(-c4ccc(O)cc4)coc3c2)[C@H](O)[C@@H](O)[C@@H]1O [malonylgenistin, 6″-O-malonylgenistin] = 39.8
2) O=c1c(-c2ccc(O)cc2)coc2cc(O[C@@H]3O[C@H](CO)[C@@H](O)[C@H](O)[C@H]3O)cc(O)c12 [genistin] = 44.3
3) O=c1c(-c2ccc(O)cc2)coc2cc(O)cc(O)c12 [genistein] = 14.1

Switching to the query record.
Q: Give its Decomposition efficiency of genistin family in defatted soybean value. Item: CC(=O)OC[C@H]1O[C@@H](Oc2cc(O)c3c(=O)c(-c4ccc(O)cc4)coc3c2)[C@H](O)[C@@H](O)[C@@H]1O [acetylgenistin, 6″-O-acetylgenistin]
Result: 1.8

---

tested on: Crude diglycosidase; experiment: Examination of temperature in the conversion into isoflavone aglycons by diglycosidase using soybean materials; type: biochemical, Penicillium multicolor IAM7153; design: concentration or dose not given beside the values; conditions: 80 °C; heat treatment of enzyme: no; 3 h
Listing of recorded Decomposition efficiency of daidzin family in roasted soy flour by entry.

Consider the reported Decomposition efficiency of daidzin family in roasted soy flour for these compounds:
1. O=c1c(-c2ccc(O)cc2)coc2cc(O[C@@H]3O[C@H](CO)[C@@H](O)[C@H](O)[C@H]3O)ccc12 [daidzin] = 4.4%
2. CC(=O)OC[C@H]1O[C@@H](Oc2ccc3c(=O)c(-c4ccc(O)cc4)coc3c2)[C@H](O)[C@@H](O)[C@@H]1O [acetyldaidzin, 6″-O-acetyldaidzin] = 47.9%

Q: Give its Decomposition efficiency of daidzin family in roasted soy flour value. Item: O=c1c(-c2ccc(O)cc2)coc2cc(O)ccc12 [daidzein]
Result: 47.7%

Origin of values: patent US7118895B2
